// reported Papp at 10 μM per item
- reported conditions: human, four-donor-derived monolayer models (Supplementary Fig. 8a)

Q) Which Papp at 10 μM is reported for this compound? Cc1onc(-c2ccccc2)c1C(=O)N[C@@H]1C(=O)N2[C@@H]1SC(C)(C)[C@@H]2C(=O)O
A) < 1 ×10⁻⁶ cm/s

Q) Also COCCc1ccc(OCC(O)CNC(C)C)cc1 (centres unmarked) , if possible.
A) > 1 ×10⁻⁶ cm/s

New cases:
Q) Which Papp at 10 μM is reported for this compound? CC(C)NCC(O)COc1cccc2ccccc12 (centres unmarked)
A) > 1 ×10⁻⁶ cm/s

Q) Also CC(C(=O)O)c1cccc(C(=O)c2ccccc2)c1 (centres unmarked) , if possible.
A) > 1 ×10⁻⁶ cm/s

Q) Also NC(=O)N1c2ccccc2C=Cc2ccccc21 [Carbamazepine] , if possible.
A) > 1 ×10⁻⁶ cm/s
